Origin of the recorded values: paper PMC6429087

- subject_of_test: LmUGP (Leishmania major, UniProt Q4QDU3)
- test_description: HPLC-based enzyme activity assay, LmUGP (UDP-Glc production)
- cond: 95% confidence intervals; concentrations 7 µM to 500 µM
pIC50: −log10 of the molar value.
measured_parameter: pIC50

The examples below pair each entry with its known result.
INSERT INTO assay_data (compound, observed) VALUES
  ('O=C(Cn1cnc2ccccc2c1=O)NCCc1c[nH]c2ccc(Cl)cc12', '3.62 to 3.72'),
  ('O=C(Cn1c(=O)[nH]c2ccccc2c1=O)NCCc1c[nH]c2ccc(Cl)cc12', '4.16 to 4.26'),
  ('O=C(Cn1cnc2ccccc2c1=O)NCCc1c[nH]c2ccc(F)cc12', '4.33 to 4.42'),
  ('O=C(Cn1c(=O)[nH]c2ccccc2c1=O)NCCc1c[nH]c2ccccc12', '3.82 to 3.92'),
  ('CC(Cc1c[nH]c2ccccc12)NC(=O)Cn1c(=O)[nH]c2ccccc2c1=O (stereo not shown)', '< 3.60'),
  ('COc1ccc2[nH]cc(CCNC(=O)Cn3c(=O)[nH]c4ccccc4c3=O)c2c1', '< 3.60');

Here's the next entry for you.
*Q* Give pIC50 for the following compound: O=C(Cn1c(=O)[nH]c2ccccc2c1=O)Nc1ccc2[nH]ccc2c1
*A* 3.87 to 3.90

###

- subject_of_test: LmUSP (Leishmania major)
- test_description: Bio-layer interferometry (BLI) binding to biotinylated LmUSP on Super Streptavidin biosensors
- cond: BLI 7-point concentration series 2 µM to 500 µM, steady state fitting; read-out: Estimated KD
measured_parameter: Kd
A complete answer gives the number followed by the unit.

INSERT INTO assay_data (compound, observed) VALUES
  ('CC(C(=O)O)c1cccc(F)c1 (stereo not shown)', '60.1 µM'),
  ('Cn1c(=O)n(CCN)c(=O)c2ccccc21', '67.6 µM'),
  ('COCCNC(=O)n1c(=O)oc2ccccc21', '72.6 µM');

*Q* Identify the reported Kd for the following entry. O=C(O)Cc1cccc(C(F)(F)F)c1
*A* 83.3 µM

###

- subject_of_test: LmUSP (Leishmania major, UniProt D3G6S4)
- test_description: Bio-layer interferometry (BLI) binding to biotinylated LmUSP on Super Streptavidin biosensors
- cond: BLI primary screen, fragment 200 µM, 200 µM UTP in running buffer
// reported Primary Binding Response for each item listed
Number only, no unit.

Below, 3 molecules whose answers are already recorded.
INSERT INTO assay_data (molecule, measured_parameter, observed) VALUES
  ('O=C(O)Cc1cccc(C(F)(F)F)c1', 'Primary Binding Response', 0.127),
  ('COCCNC(=O)n1c(=O)oc2ccccc21', 'Primary Binding Response', 0.077),
  ('CC(C(=O)O)c1cccc(F)c1 (stereo not shown)', 'Primary Binding Response', 0.1541);

*Q* Report measured Primary Binding Response; entry is Cn1c(=O)n(CCN)c(=O)c2ccccc21
*A* 0.1728

###

Below: a set of entries, each annotated with reported pIC50.
- subject_of_test: LmUSP (Leishmania major, UniProt D3G6S4)
- test_description: HPLC-based enzyme activity assay, LmUSP (UDP-Gal production)
- cond: 95% confidence intervals; concentrations 7 µM to 500 µM
pIC50: −log10 of the molar value.

Study these solved cases before continuing.
INSERT INTO assay_data (molecule, observed) VALUES
  ('O=C(Cn1cnc2ccccc2c1=O)NCCc1c[nH]c2ccc(F)cc12 [#8E]', '4.33 to 4.39'),
  ('COc1ccc2[nH]cc(CCNC(=O)Cn3c(=O)[nH]c4ccccc4c3=O)c2c1 [#8C]', '< 3.60'),
  ('CC(Cc1c[nH]c2ccccc12)NC(=O)Cn1c(=O)[nH]c2ccccc2c1=O (stereo not shown) [#8A]', '< 3.60'),
  ('O=C(Cn1c(=O)[nH]c2ccccc2c1=O)Nc1ccc2[nH]ccc2c1 [#4]', '3.76 to 3.87'),
  ('O=C(Cn1cnc2ccccc2c1=O)NCCc1c[nH]c2ccc(Cl)cc12 [#8D]', '3.71 to 3.77');

*Q* Item O=C(Cn1c(=O)[nH]c2ccccc2c1=O)NCCc1c[nH]c2ccccc12 [#8] : provide pIC50
*A* 3.97 to 4.11

*Q* Give me measured pIC50, please, for this molecule: O=C(Cn1c(=O)[nH]c2ccccc2c1=O)NCCc1c[nH]c2ccc(Cl)cc12 [#8B]
*A* 4.18 to 4.33
